study.target: T1, hPD-L1mIg fusion protein (human, UniProt Q9NZQ7 19-238)
T1 construct: also called hPD-L1 mIg protein; biotin-labeled hPD-L1-mouse Fc fusion protein; not shown: mouse Ig (Fc) part
T1 sequence (Q9NZQ7 19-238): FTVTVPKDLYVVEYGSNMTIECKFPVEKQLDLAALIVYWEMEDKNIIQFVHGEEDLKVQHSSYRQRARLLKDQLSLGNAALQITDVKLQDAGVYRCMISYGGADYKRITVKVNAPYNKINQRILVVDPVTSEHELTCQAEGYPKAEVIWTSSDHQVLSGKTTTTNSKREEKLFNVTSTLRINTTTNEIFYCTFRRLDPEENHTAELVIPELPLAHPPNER
measurement.notes: SPR, Biacore T200; hPD-L1 mIg amine-coupled on CM5 chip, antibody injected at 1-32 nM, full kinetic analysis
Recorded pKd by entry
# pKd = -log10(concentration in molar units)

In the examples that follow, each entry is paired with its recorded pKd.
INSERT INTO measurements (binder, measured) VALUES
  ('anti-PD-L1 HC2 + LC3 (antibody, V domains shown, Humanized antibody, Humanized VH 2 + Humanized VL 3; also called H2+L3; H23) VH: QVQLVQSGAEVKKPGASVKVSCKASGFNIKDTYMYWVRQAPGQGLEWIGRIDPANDNTKYAPKFQGRVTITADTSTNTAYMELSSLRSEDTAVYYCARAKNLLNYFDYWGQGTLVTVSS VL: DIQMTQSPSSLSASVGDRVTITCRASQEISGYLSWYQQKPGKAPKRLIYATSTLDSGVPSRFSGSRSGSDYTLTISSLQPEDFATYYCLQYAIYPLTFGQGTKLEIKR', 8.73),
  ('anti-PD-L1 HC1 + LC2 (antibody, V domains shown, Humanized antibody, Humanized VH 1 + Humanized VL 2; also called H1+L2; H12) VH: QVQLVQSGAEVKKPGASVKVSCKASGFNIKDTYMYWVRQAPGQGLEWMGRIDPANDNTKYAQKFQGRVTITADTSTSTAYMELSSLRSEDTAVYYCARAKNLLNYFDYWGQGTLVTVSS VL: DIQMTQSPSSLSASVGDRVTITCRASQEISGYLSWLQQKPGKAPKRLIYATSTLQSGVPSRFSGSRSGTDYTLTISSLQPEDFATYYCLQYAIYPLTFGQGTKLEIKR', 9.25);

Name the reported pKd value associated with the binder anti-PD-L1 HC1 + LC1 (antibody, V domains shown, Humanized antibody, Humanized VH 1 + Humanized VL 1; also called H1+L1; H11) VH: QVQLVQSGAEVKKPGASVKVSCKASGFNIKDTYMYWVRQAPGQGLEWMGRIDPANDNTKYAQKFQGRVTITADTSTSTAYMELSSLRSEDTAVYYCARAKNLLNYFDYWGQGTLVTVSS VL: DIQMTQSPSSLSASVGDRVTITCRASQEISGYLSWYQQKPGKAPKRLIYATSTLDSGVPSRFSGSGSGTDFTLTISSLQPEDFATYYCLQYAIYPLTFGQGTKLEIKR
8.86
